# Test system: DeltatarO mutant
# Protocol Summary: S. aureus survival, RN4220 and DeltatarO strains – OD600, teichoic acid synthesis inhibitors, primary screen (AID 463173)
# Test Context: S. aureus RN4220 wild type/DeltatarO growth, OD600, 18 h, hits give low values, screened at 18.75 µg/mL (by protocol)
About 4,300 (8.3%) of roughly 52,000 compounds were called active. Shown is part of a subset that was picked to be rich in actives.
Measurement Label: survival

# count of solved cases: 2
| Compound | survival |
| --- | --- |
| Cc1cc(C)c(NC(=O)Cc2csc(C)n2)c(Cl)c1 | 48% (inactive) |
| Cc1cccc(NC(=O)Nc2cccs2)c1C | 93% (inactive) |

State its survival: Cc1ccccc1C1C(C#N)=C(N)NC(S)=C1C#N (configuration not stated)
93% (inactive)

State its survival: Cc1ccc(C(C)(C)C)c(OCC(=O)NCCc2nc3ccccc3[nH]2)c1
70% (inactive)

State its survival: Cc1nc(CC(=O)Nc2cccc(C)c2C)cs1
39% (active)

State its survival: CCCSCCCNC(=O)CN1C(=O)COc2ccc(S(=O)(=O)N3CCCC3)cc21
71% (inactive)

State its survival: Cc1ccc(NC(=O)Cc2csc(C)n2)c(C)c1
40% (active)
